- Tested on: Cabbage Looper [Trichoplusia ni (Hubner)]
- method description: Cabbage looper insecticidal test
- Format: in vivo
- run conditions: second-instar larvae, percent in solution; 3-5 days
observed property: LC50, CL (%)
Value expressed in %; do not type the unit.

Exam item: Which LC50, CL reading was recorded for the compound COCc1c(F)c(F)c(COC(=Nc2ccc3c(c2)OCO3)C(C)C)c(F)c1F ?
Marked response: 0.00045

Exam item: Next: Cc1c(Cl)cc(N=C(OCc2cccc(Oc3ccccc3)c2)C(C)C)cc1Cl
Marked response: 0.0045

Exam item: Request: CC(C)C(=Nc1ccc(Cl)c(Cl)c1)OCc1cccc(Oc2ccc(F)cc2)c1
Marked response: 0.0004

Exam item: Further, for CC(C)C(=Nc1ccc(F)c(Cl)c1)OCc1ccc(F)c(Oc2ccc(Cl)cc2)c1 ?
Marked response: 0.00008
